From: ChEMBL document CHEMBL3593221

Target: UniProt O15379
Sequence (O15379 whole entry): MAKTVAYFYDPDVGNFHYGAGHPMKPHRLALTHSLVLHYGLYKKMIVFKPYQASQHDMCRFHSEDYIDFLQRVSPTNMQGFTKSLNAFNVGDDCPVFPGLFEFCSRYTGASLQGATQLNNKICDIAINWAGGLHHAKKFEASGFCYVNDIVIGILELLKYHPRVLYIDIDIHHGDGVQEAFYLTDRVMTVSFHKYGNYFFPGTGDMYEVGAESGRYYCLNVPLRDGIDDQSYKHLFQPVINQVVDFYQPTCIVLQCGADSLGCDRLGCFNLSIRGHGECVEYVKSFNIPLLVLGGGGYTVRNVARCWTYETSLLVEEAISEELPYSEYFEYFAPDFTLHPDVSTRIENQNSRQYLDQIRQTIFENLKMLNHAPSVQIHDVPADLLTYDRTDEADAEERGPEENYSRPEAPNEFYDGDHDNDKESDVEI
REPORTED ENDPOINT: IC50 (nM)
Report the figure in nM without appending any unit label.

Query block: Please look at `O=C(CCN1C(=O)C2(OCCCO2)c2cc(Br)ccc21)Nc1ccc(C(=O)NO)cc1` and tell me its recorded IC50 on UniProt O15379.
Result block: 25

* * *

Tested on: U-937
Assay: Antiproliferative activity against human U937 cells after 48 hrs by MTT assay
Type: functional, cell-based
Conditions: U-937, 48 h
REPORTED ENDPOINT: IC50
Please append the unit to your numeric answer.

These recorded examples may help you get a feel for the data.
Query block: Name the value of IC50 reported for `O=C(CN1C(=O)C2(OCCCO2)c2cc(Cl)ccc21)Nc1ccc(C(=O)NO)cc1` when tested on U-937.
Result block: 2090 nM

Query block: Would you please give the reported IC50 of `O=C(CN1C(=O)C2(OCCCCO2)c2cc(Br)ccc21)Nc1ccc(C(=O)NO)cc1` with U-937?
Result block: 660 nM

Query block: Report the value of IC50 obtained on U-937 for `O=C(CN1C(=O)C2(OCCCCO2)c2cc(Cl)ccc21)Nc1ccc(C(=O)NO)cc1` .
Result block: 1490 nM

Query block: Look up and report measured IC50 (U-937) for the following molecule: `Nc1ccccc1NC(=O)c1ccc(NC(=O)CN2C(=O)C3(OCCCO3)c3cc(Br)ccc32)cc1`
Result block: 1080 nM

Query block: Under U-937: report IC50 of `O=C(CCN1C(=O)C2(OCCCO2)c2cc(Br)ccc21)Nc1ccc(C(=O)NO)cc1` .
Result block: 140 nM

---
Query block: State, for U-937, measured IC50 of the molecule listed here: `O=C(CCCN1C(=O)C2(OCCCO2)c2cc(Br)ccc21)Nc1ccc(C(=O)NO)cc1`
Result block: 220 nM

Query block: Fetch value of IC50 on U-937 for `O=C(CN1C(=O)C2(OCCCO2)c2cc(Br)ccc21)Nc1ccc(C(=O)NO)cc1` .
Result block: 400 nM
